- test-system: CyclinE1/CDK2 (Homo sapiens, UniProt P24864)
- Construct: purchased Eurofins, discovery 14-475
- assay-details: Fluorescence Polarization (FP) competitive binding assay, Cyclin E1/Cdk2
- condition-context: 10 nM Cyclin E1/Cdk2, 2 nM FAM probe; average of 2-3 independent experiments; read-out: Cyclin E FP IC50
I'd be grateful if you could share measured IC50 for these entries.
Numeric answer only, unit µM assumed.

Ask: Provide IC50, recorded with CyclinE1/CDK2 (Homo sapiens, UniProt P24864), of CC(C)C[C@@H]1NC(=O)[C@@H](N(C)C(=O)[C@@H](NC(=O)[C@@H]2C[C@@H](F)CN2C(=O)C2(C(F)(F)F)CCC2)C2CC2)CC=CCCCCN(C)C(=O)[C@H](Cc2cc(Cl)cnc2OC(C)C)N(C)C1=O [Example 137]
Result: 0.13

Ask: Provide IC50, recorded with CyclinE1/CDK2 (Homo sapiens, UniProt P24864), of CC[C@H](NC(=O)[C@@H]1C[C@@H](F)CN1C(=O)C1(C(F)(F)F)CC1)C(=O)N[C@H]1CC=CCCCCNC(=O)[C@H](Cc2cc(Cl)ccc2Cl)N(C)C(=O)[C@H](CC(C)C)NC1=O [Example 2]
Result: 0.1

---

- test-system: CyclinB1/CDK1 (Homo sapiens)
- Construct: purchased Eurofins, discovery 14-450
- assay-details: Fluorescence Polarization (FP) competitive binding assay, Cyclin B1/Cdk1;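 further: fluorescence polarization read after equilibration at room temperature, with IC50 taken from serially diluted dose-response curves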
- condition-context: 10 nM Cyclin B1/Cdk1, 2 nM FAM probe; average of 2-3 independent experiments; read-out: Cyclin B FP IC50
*1 amine or outer side, *2 acyl side, *3 side chain or, on linkers, in order; H or OH if unused. Where a SMILES comes first, the peptide text is derived from it. Bridges are numbered along the chain shown (N, C = ends). [ ]: non-standard residue; d: D form. The star is where a group is joined. X144 = CN([C@@H](Cc1cc(Cl)ccc1-c1ccc(N2CC(C)(F)C2)nc1)C(=O)[*:2])[*:1]; X195 = CC(=O)Nc1ccc(-c2ccc(Cl)cc2C[C@@H](C(=O)[*:2])N(C)[*:1])cn1; NMehhhLys(Me) = CN([C@@H](CCCCCCCN(C)[*:3])C(=O)[*:2])[*:1]; cBuCO(3,3-F2-1-CF3) = O=C(C1(C(F)(F)F)CC(F)(F)C1)*; Pro(trans-4-F) = O=C(O)[C@@H]1C[C@@H](F)CN1; Gly(cPr) = N[C@H](C(=O)O)C1CC1
I'd be grateful if you could share measured pIC50 for these entries.
Scale: negative log10 of molar concentration, which is what pIC50 denotes.

Ask: Identify the reported pIC50 for the following entry. CC(=O)Nc1ccc(-c2ccc(Cl)cc2C[C@H]2C(=O)N(C)CCCCCCC[C@H](N(C)C(=O)[C@@H](NC(=O)[C@@H]3C[C@@H](F)CN3C(=O)C3(C(F)(F)F)CC(F)(F)C3)C3CC3)C(=O)N[C@@H](CC(C)C)C(=O)N2C)cn1 [Example 265] ({cBuCO(3,3-F2-1-CF3)}-[Pro(trans-4-F)][Gly(cPr)][NMehhhLys(Me)]L[X195]; lactam 3-C)
Result: 7.70

Ask: Identify the reported pIC50 for the following entry. CC(C)C[C@@H]1NC(=O)[C@@H](N(C)C(=O)[C@@H](NC(=O)[C@@H]2C[C@@H](F)CN2C(=O)C2(C(F)(F)F)CC(F)(F)C2)C2CC2)CCCCCCCN(C)C(=O)[C@H](Cc2cc(Cl)ccc2-c2ccc(N3CC(C)(F)C3)nc2)N(C)C1=O [Example 402] ({cBuCO(3,3-F2-1-CF3)}-[Pro(trans-4-F)][Gly(cPr)][NMehhhLys(Me)]L[X144]; lactam 3-C)
Result: 7.70

Ask: Identify the reported pIC50 for the following entry. `CC(C)C[C@@H]1NC(=O)[C@@H](N(C)C(=O)[C@@H](NC(=O)[C@@H]2C[C@@H](F)CN2C(=O)C2(C(F)(F)F)CC(F)(F)C2)C2CC2)CC=CCCCCN(C)C(=O)[C@H](Cc2cc(Cl)ccc2-c2cncnc2)N(C)C1=O`
Result: 7.70

---

- test-system: CyclinE1/CDK2 (Homo sapiens)
- Construct: purchased Eurofins, discovery 14-475
- assay-details: Fluorescence Polarization (FP) competitive binding assay, Cyclin E1/Cdk2;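 further: readings taken after two-hour equilibration at room temperature in HEPES buffer with NaCl, DTT, NP-40 and BSA, IC50 fitted from eight-concentration serial dilution series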
- condition-context: 10 nM Cyclin E1/Cdk2, 2 nM FAM probe; average of 2-3 independent experiments; read-out: Cyclin E FP IC50
*1 amine or outer side, *2 acyl side, *3 side chain or, on linkers, in order; H or OH if unused. Where a SMILES comes first, the peptide text is derived from it. Bridges are numbered along the chain shown (N, C = ends). [ ]: non-standard residue; d: D form. The star is where a group is joined. X179 = CN([C@@H](Cc1cc(Cl)ccc1-c1ccc(N2CCOCC2)c(C#N)c1)C(=O)[*:2])[*:1]; X203 = CN([C@@H](Cc1cc(Cl)ccc1-c1cnn(C(F)F)c1)C(=O)[*:2])[*:1]; X208 = CN([C@@H](Cc1cc(F)ccc1-c1cnn(CC(F)F)c1)C(=O)[*:2])[*:1]; X183 = CN([C@@H](Cc1cc(Cl)ccc1-c1ccc2nncn2c1)C(=O)[*:2])[*:1]; NMehhhLys(Me) = CN([C@@H](CCCCCCCN(C)[*:3])C(=O)[*:2])[*:1]; Cyclobutanecarbonyl(1-CF3) = O=C(C1(C(F)(F)F)CCC1)*; cBuCO(3,3-F2-1-CF3) = O=C(C1(C(F)(F)F)CC(F)(F)C1)*; Pro(trans-4-F) = O=C(O)[C@@H]1C[C@@H](F)CN1; Gly(cPr) = N[C@H](C(=O)O)C1CC1
Decision: IC50 beneath 3000 nM gives 1; IC50 meeting or exceeding 3000 nM gives -1.

Ask: Quick check: does CC(C)C[C@@H]1NC(=O)[C@@H](N(C)C(=O)[C@@H](NC(=O)[C@@H]2C[C@@H](F)CN2C(=O)C2(C(F)(F)F)CC(F)(F)C2)C2CC2)CCCCCCCN(C)C(=O)[C@H](Cc2cc(Cl)ccc2-c2ccc3nncn3c2)N(C)C1=O [Example 178] ({cBuCO(3,3-F2-1-CF3)}-[Pro(trans-4-F)][Gly(cPr)][NMehhhLys(Me)]L[X183]; lactam 3-C) have IC50 under 3000 nM?
Result: -1

Ask: Quick check: does CC(=O)N1[C@H]2CC[C@@H]1C=C(c1ccc(Cl)cc1C[C@H]1C(=O)N(C)CCCCCCC[C@H](N(C)C(=O)[C@@H](NC(=O)[C@@H]3C[C@@H](F)CN3C(=O)C3(C(F)(F)F)CC(F)(F)C3)C3CC3)C(=O)N[C@@H](CC(C)C)C(=O)N1C)C2 (single isomer, unassigned) [Example 57-P2] have IC50 under 3000 nM?
Result: 1

Ask: Quick check: does CC(C)C[C@@H]1NC(=O)[C@@H](N(C)C(=O)[C@@H](NC(=O)[C@@H]2C[C@@H](F)CN2C(=O)C2(C(F)(F)F)CCC2)C2CC2)CCCCCCCN(C)C(=O)[C@H](Cc2cc(F)ccc2-c2cnn(CC(F)F)c2)N(C)C1=O [Example 92] ({Cyclobutanecarbonyl(1-CF3)}-[Pro(trans-4-F)][Gly(cPr)][NMehhhLys(Me)]L[X208]; lactam 3-C) have IC50 under 3000 nM?
Result: 1

Ask: Quick check: does CC(C)C[C@@H]1NC(=O)[C@@H](N(C)C(=O)[C@@H](NC(=O)[C@@H]2C[C@@H](F)CN2C(=O)C2(C(F)(F)F)CC(F)(F)C2)C2CC2)CCCCCCCN(C)C(=O)[C@H](Cc2cc(Cl)ccc2-c2cnn(C(F)F)c2)N(C)C1=O [Example 200] ({cBuCO(3,3-F2-1-CF3)}-[Pro(trans-4-F)][Gly(cPr)][NMehhhLys(Me)]L[X203]; lactam 3-C) have IC50 under 3000 nM?
Result: 1

Ask: Quick check: does CC(C)C[C@@H]1NC(=O)[C@@H](N(C)C(=O)[C@@H](NC(=O)[C@@H]2C[C@@H](F)CN2C(=O)C2(C(F)(F)F)CC(F)(F)C2)C2CC2)CCCCCCCN(C)C(=O)[C@H](Cc2cc(Cl)ccc2-c2ccc(N3CCOCC3)c(C#N)c2)N(C)C1=O [Example 379] ({cBuCO(3,3-F2-1-CF3)}-[Pro(trans-4-F)][Gly(cPr)][NMehhhLys(Me)]L[X179]; lactam 3-C) have IC50 under 3000 nM?
Result: 1

---

I'd be grateful if you could share measured GI50 for these entries.
- Tested on: NCI-H1048 cells
- assay-details: MTT proliferation assay, NCI-H1048;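 further: Dose-response in 96-well plates over 8 or 10 concentration points, with exposure spanning 3-4 cell doublings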
- Assay type: cell-based
- condition-context: 5 days compound exposure, 1:3 serial dilution starting at 10 μM
*1 amine or outer side, *2 acyl side, *3 side chain or, on linkers, in order; H or OH if unused. Where a SMILES comes first, the peptide text is derived from it. Bridges are numbered along the chain shown (N, C = ends). [ ]: non-standard residue; d: D form. The star is where a group is joined. NMePhe(2-(4-MorPh),5-Cl) = CN[C@@H](Cc1cc(Cl)ccc1-c1ccc(N2CCOCC2)cc1)C(=O)O; NMehhhLys(Me) = CN([C@@H](CCCCCCCN(C)[*:3])C(=O)[*:2])[*:1]; Pro(trans-4-F) = O=C(O)[C@@H]1C[C@@H](F)CN1; X201 = O=C(C1(C(F)F)CC(F)(F)C1)*; Gly(cPr) = N[C@H](C(=O)O)C1CC1
Numeric answer only, unit nM assumed.

Ask: Identify the reported GI50 for the following entry. `CC(=O)N1CC=C(c2ccc(F)cc2C[C@H]2C(=O)N(C)CCCCC=CC[C@H](N(C)C(=O)[C@@H](NC(=O)[C@@H]3C[C@@H](F)CN3C(=O)C3(C(F)(F)F)CC(F)(F)C3)C3CC3)C(=O)N[C@@H](CC(C)C)C(=O)N2C)CC1`
Result: 90

Ask: Identify the reported GI50 for the following entry. CC(C)C[C@@H]1NC(=O)[C@@H](N(C)C(=O)[C@@H](NC(=O)[C@@H]2C[C@@H](F)CN2C(=O)C2(C(F)(F)F)CC(F)(F)C2)C2CC2)CC=CCCCCNC(=O)[C@H](Cc2cc(Cl)ccc2Cl)N(C)C1=O (single isomer, unassigned) [Example 6-P1]
Result: 50

Ask: Identify the reported GI50 for the following entry. CC(C)C[C@@H]1NC(=O)[C@@H](N(C)C(=O)[C@@H](NC(=O)[C@@H]2C[C@@H](F)CN2C(=O)C2(C(F)F)CC(F)(F)C2)C2CC2)CCCCCCCN(C)C(=O)[C@H](Cc2cc(Cl)ccc2-c2ccc(N3CCOCC3)cc2)N(C)C1=O [Example 350] (X201-[Pro(trans-4-F)][Gly(cPr)][NMehhhLys(Me)]L[NMePhe(2-(4-MorPh),5-Cl)]; lactam 3-C)
Result: 10
